- System: Ephydatia fluviatilis
- protocol-summary: Inhibition of reaggregation of cells in Ephydatia fluviatilis
- Assay type: functional
measurement-label: Activity

compound="CCCCCCCCCCCC1N=C(N)NC(CCCO)=C1C(=O)OCCCCCNC(=N)N.Cl (centres undefined)" reported_result="2.1 ×10⁻² M"
compound=CCCCCCCCCCC[C@@H]1N=C(N)N[C@]2(CCCO2)[C@@H]1C(=O)OCCCCCNC(=N)N.Cl reported_result="2 mM"
compound="CC[C@H]1C=CCC[C@]2(C[C@H]3CC[C@]4(O)[C@H](C(=O)OCCCCCCCCCCCCCCCC(=O)N(CCCN)C[C@@H](O)CCN)[C@@]5(CCC[C@@H](C)O5)NC(=[N+]34)N2)O1.[Cl-] [CRAMBESCIDIN 816 HYDROCHLORIDE]" reported_result="1.2 mM"

--- query ---
May I ask what Activity has been recorded for CCCCCCCCCCCC1N=C(N)N2CCCC2=C1C(=O)OCCCCNC(=N)N.Cl (centres undefined) ? 2.3 mM
